Measured Target: human PDHK2 (hPDHK2) (Homo sapiens (Human), UniProt Q15119)
Experiment Summary: Inhibitory action of PDHK activity in vitro (kinase reaction, residual PDH activity measured)
Assay type: biochemical
Conditions Used: read-out: PDHK inhibitory activity IC50
Each entry below carries its reported IC50.
Give the value in nM but do not write nM after it.

Solved cases (3 shown):
{"Compound": "NC(=O)c1cccc2c1-c1ccccc1C2(O)C(F)(F)F (centres unmarked) [compound 33]", "Measured Target": "human PDHK2 (hPDHK2) (Homo sapiens (Human), UniProt Q15119)", "Display Unit": "nM", "IC50": 1810}
{"Compound": "O=C(c1cc(Cl)c2c(c1)C(O)(C(F)(F)F)c1ccccc1-2)N1CC(CO)C1 (centres unmarked) [compound 330]", "Measured Target": "human PDHK2 (hPDHK2) (Homo sapiens (Human), UniProt Q15119)", "Display Unit": "nM", "IC50": 125}
{"Compound": "CC(C)(C)CCc1cc(-c2cnn(C(CO)CO)c2)c2c(c1)C(O)(C(F)(F)F)c1ccccc1-2 (single isomer, unassigned) [compound 669]", "Measured Target": "human PDHK2 (hPDHK2) (Homo sapiens (Human), UniProt Q15119)", "Display Unit": "nM", "IC50": 17}

Query :: Param item = NC(=O)Cn1cc(-c2cc(OCCC34CC5CC(CC(O)(C5)C3)C4)cc3c2-c2ccccc2C3(O)C(F)(F)F)cn1 (single isomer, unassigned) [compound 541] ; retrieve measured IC50.
Result :: 15

Query :: Param item = CC(C)(C)COc1ccc2c(c1)C(O)(C(F)(F)F)c1ccccc1-2 (centres unmarked) [compound 279] ; retrieve measured IC50.
Result :: 1850

Query :: Param item = Cn1cc(-c2cc(OCCCC(=O)O)cc3c2-c2ccccc2C3(O)C(F)(F)F)cn1 (single isomer, unassigned) [compound 504] ; retrieve measured IC50.
Result :: 19
